Experiment: Probe fluorescence ratio response to oleate:BSA complex, relative to ADIFAB2 (ΔR/ΔRAD2)
Assay type: binding
Conditions: fluorescence response (R-Ro) relative to ADIFAB2; oleate
assay_endpoint: ΔR/ΔRAD2 OA
Give the figure only, with no unit attached.

# ΔR/ΔRAD2 OA lookup, item L2P23A4: acrylodan-labeled rI-FABP-L72A mutein: M18 V, G31 I, F55 L, A73 V (protein, UniProt P02693 2-132, looked up, variant M18V G31I F55L L72A A73V, acrylodan label) Fatty acid-binding protein, …: AFDGTWKVDRNENYEKFVEKMGINVVKRKLIAHDNLKLTITQEGNKFTVKESSNLRNIDVVFELGVDFAYSAVDGTELTGTWTMEGNKLVGKFKRVDNGKELIAVREISGNELIQTYTYEGVEAKRIFKKE
2.3

Same question, L1P1 C3: acrylodan-labeled rI-FABP mutein: Y14 M, L38 wt, L72 W, Y117 wt (protein, UniProt P02693 2-132, looked up, variant Y14M L72W, acrylodan label) Fatty acid-binding protein, …: AFDGTWKVDRNENMEKFMEKMGINVVKRKLGAHDNLKLTITQEGNKFTVKESSNFRNIDVVFELGVDFAYSWADGTELTGTWTMEGNKLVGKFKRVDNGKELIAVREISGNELIQTYTYEGVEAKRIFKKE this time
−1.3

What do you have for L1P1 F7: acrylodan-labeled rI-FABP mutein: Y14 L, L38 M, L72 wt, Y117 F (protein, UniProt P02693 2-132, looked up, variant Y14L L38M Y117F, acrylodan label, acrylodan-labeled rI-FABP mutein: Y14 L, L38 M, L72 wt, Y117 F) Fatty acid-binding protein, …: AFDGTWKVDRNENLEKFMEKMGINVVKRKLGAHDNLKMTITQEGNKFTVKESSNFRNIDVVFELGVDFAYSLADGTELTGTWTMEGNKLVGKFKRVDNGKELIAVREISGNELIQTFTYEGVEAKRIFKKE ?
0.5
